Reference for the values: patent US20260248774A1

molecular target: hERG (Homo sapiens)
Sequence (Q12809 whole entry): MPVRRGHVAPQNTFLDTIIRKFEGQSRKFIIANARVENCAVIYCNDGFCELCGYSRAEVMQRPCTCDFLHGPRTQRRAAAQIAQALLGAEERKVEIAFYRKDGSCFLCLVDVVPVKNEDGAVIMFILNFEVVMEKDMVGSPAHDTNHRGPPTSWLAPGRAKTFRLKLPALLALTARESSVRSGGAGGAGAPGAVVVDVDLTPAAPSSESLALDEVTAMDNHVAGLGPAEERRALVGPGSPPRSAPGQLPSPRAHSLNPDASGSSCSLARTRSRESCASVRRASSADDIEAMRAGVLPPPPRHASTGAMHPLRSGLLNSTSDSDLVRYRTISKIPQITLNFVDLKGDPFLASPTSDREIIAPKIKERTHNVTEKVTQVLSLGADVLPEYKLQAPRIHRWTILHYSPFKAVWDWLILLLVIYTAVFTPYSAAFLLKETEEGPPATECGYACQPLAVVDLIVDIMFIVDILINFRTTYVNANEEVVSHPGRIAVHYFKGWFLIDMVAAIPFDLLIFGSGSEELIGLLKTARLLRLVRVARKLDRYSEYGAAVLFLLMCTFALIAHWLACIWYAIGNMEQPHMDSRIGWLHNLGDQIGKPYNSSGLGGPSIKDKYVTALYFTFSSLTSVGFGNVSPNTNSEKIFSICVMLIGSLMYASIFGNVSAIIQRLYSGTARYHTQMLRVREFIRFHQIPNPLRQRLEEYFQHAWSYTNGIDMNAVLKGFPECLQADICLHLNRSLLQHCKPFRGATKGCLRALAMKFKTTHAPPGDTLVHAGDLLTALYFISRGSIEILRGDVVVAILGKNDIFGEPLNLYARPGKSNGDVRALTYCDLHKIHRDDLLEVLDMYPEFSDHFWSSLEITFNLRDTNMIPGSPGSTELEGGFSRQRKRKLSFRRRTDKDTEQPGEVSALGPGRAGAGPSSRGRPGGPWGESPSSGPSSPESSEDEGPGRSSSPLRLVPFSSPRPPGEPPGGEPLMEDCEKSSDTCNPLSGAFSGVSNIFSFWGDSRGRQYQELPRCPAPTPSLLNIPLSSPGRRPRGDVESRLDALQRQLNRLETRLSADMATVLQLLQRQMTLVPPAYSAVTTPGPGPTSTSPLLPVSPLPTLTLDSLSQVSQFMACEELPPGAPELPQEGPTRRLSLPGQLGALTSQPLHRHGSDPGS
pIC50: −log10 of the molar value.
readout kind: pIC50

Name the reported pIC50 value associated with the compound CCC(Oc1ccc(Cl)c(Cl)c1Cl)C(=O)NCc1ccc(F)cc1 (stereo not shown)
< 4.00

###

test system: panel of human cytochrome P450s (1A2, 2C19, 2C9, 2D6, 3A4), receptors, transporters and ion channels; assay: in vitro
readout kind: inhibition at 10 µM

Given CCC(Oc1ccc(Cl)c(Cl)c1Cl)C(=O)NCc1ccc(F)cc1 (stereo not shown) , state its recorded inhibition at 10 µM.
> 50%

###

System: P. aeruginosa T3SS-mediated secretion (exoT-luxCDABE reporter strain MDM852)
Experiment: Luciferase (exoT-lux) transcriptional reporter assay of T3SS-mediated secretion
Type: cell-based, Pseudomonas aeruginosa
Conditions: read-out: LUX Sec IC50; Table 1
Protocol: Luciferase Transcriptional Reporter Assay of T3SS-Mediated Secretion with a Luminescent Signal. A transcriptional fusion of the Photorhabdus luminescens lux operon (luxCDABE) to P. aeruginosa PAO1 T3SS effector gene exoT (PA0044) was constructed and used to build strain MDM852 as described previously (Aiello et al., 2010, Antimicrob Agents Chemother, 54:1988-1999). […] Then, luminescence was measured in an Envision Multilabel microplate reader (PerkinElmer). […]
Decision: IC50 beneath 2000 nM gives TRUE; IC50 meeting or exceeding 2000 nM gives FALSE.

Does CCC(Oc1ncc(Cl)cc1Cl)C(=O)NCc1ccc2c(c1)OCO2 (stereo not shown) have IC50 strictly under 2000 nM?
FALSE

Record: CCC(Oc1ccc(Cl)c(Cl)c1Cl)C(=O)NCc1ccc(F)cc1 (stereo not shown)
TRUE

Another: CC[C@@H](Oc1ncc(Cl)cc1Cl)C(=O)NCc1ccc2cc(CN(C)C)[nH]c2c1
TRUE

Please do the same for CC(=O)Nc1ccc(CCNC(=O)C(C)Oc2ccc(Cl)cc2Cl)cc1 (stereo not shown) as well.
FALSE

Then this compound: CC[C@@H](Oc1ncc(Cl)cc1Cl)C(=O)NCc1cccc(CN)c1
FALSE

Follow-up entry: CC[C@@H](Oc1ncc(Cl)cc1Cl)C(=O)NCCc1ccc(NC(C)=O)cc1
TRUE

###

Exercise: state measured solubility kinetic for each of the molecules provided.
assay: Kinetic aqueous solubility (nephelometric assay); assay type: physicochemical; details: kinetic from dmso stock; Table 9; kinetic solubility in water (nephelometric assay)

>>> print(df.to_string())
                                   molecule        readout_kind  assay_result
0  CC[C@@H](Oc1ncc(Cl)cc1Cl)C(=O)NCc1cccc(C(=O)NC2CN(CCC(=O)[O-])C2)c1.[Li+] [MBX-5427A]  solubility kinetic        100 µM

Take each entry in turn and give its solubility kinetic.
1. CC[C@@H](Oc1ncc(Cl)cc1Cl)C(=O)NCc1cccc(C(=O)NC2CN(CC(=O)[O-])C2)c1.[Li+] [MBX-5454A]
2. CC[C@@H](Oc1ncc(Cl)cc1Cl)C(=O)NCc1cccc(C(=O)NC2CN(CCCC(=O)[O-])C2)c1.[Li+] [MBX-5430A]
3. CC[C@@H](Oc1ncc(Cl)cc1Cl)C(=O)NCc1cccc(C(=O)NC2CC3(C2)CN(CCCC(=O)[O-])C3)c1.[Li+] [MBX-5524A]

1. 200 µM
2. 200 µM
3. ≥ 400 µM

###

experiment: Kinetic aqueous solubility (nephelometric assay); type: physicochemical; settings: kinetic from dmso stock; Table 9; kinetic solubility in water (nephelometric assay)
readout kind: solubility kinetic (µM)
Answers are plain numbers, in µM.

Example cases with answers are listed next.
>>> print(df.to_string())
                                   molecule  assay_result
0  CC[C@@H](Oc1ncc(Cl)cc1Cl)C(=O)NCc1cccc(NC(=O)N2CC3(CN(CCC(=O)[O-])C3)C2)c1.[Li+] [MBX-7062A]           3.5
1  CC[C@@H](Oc1ncc(Cl)cc1Cl)C(=O)NCc1cccc(CNC2CC(C(=O)[O-])C2)c1.[Li+] (some centres unmarked) [MBX-5456A]           200
2  CC[C@@H](Oc1ncc(Cl)cc1Cl)C(=O)NCc1cccc(CC(=O)NC2CC3(C2)CN(CCC(=O)[O-])C3)c1.[Li+] [MBX-5548A]           200
3  CC[C@@H](Oc1ncc(Cl)cc1Cl)C(=O)NCc1cccc(NC(=O)N2CC3(CN(CC(C)(C)C(=O)[O-])C3)C2)c1.[Li+] [MBX-7061A]           1.1

In the following, a different molecule is considered.
Please report the recorded solubility kinetic for CC[C@@H](Oc1ncc(Cl)cc1Cl)C(=O)NCc1cccc(NC(=O)NC2CN(CCC(=O)[O-])C2)c1.[Li+] [MBX-5442A] .
200

###

tested on: P. aeruginosa T3SS-mediated secretion (exoT-luxCDABE reporter strain MDM852); experiment: Luciferase (exoT-lux) transcriptional reporter assay of T3SS-mediated secretion; format: cell-based, Pseudomonas aeruginosa; conditions: read-out: LUX Sec IC50; Table 1
Consider the following molecules; for each one, report its pIC50.
Give bare numbers, as −log10 of the molar value.

                                   molecule  readout_kind  assay_result
0  CC(Oc1ccc(Cl)cc1Cl)C(=O)NCC(O)c1ccc(F)cc1 (stereo not drawn) [MBX-2785]         pIC50          4.74
1  CC[C@@H](Oc1ncc(Cl)cc1Cl)C(=O)NCc1cccc(C(=O)NC2CNC2)c1 [MBX-5031]         pIC50          6.70
2  CC(Oc1ccc(Cl)cc1Cl)C(=O)NC(CO)c1ccc(F)cc1 (stereo not drawn) [MBX-2625]         pIC50          5.15
3  CC[C@@H](Oc1ncc(Cl)cc1Cl)C(=O)N[C@@H](CO)Cc1ccc(F)cc1 [MBX-4567]         pIC50          5.07
4  CC[C@@H](Oc1ncc(Cl)cc1Cl)C(=O)NC(CO)Cc1ccc(F)cc1 (stereo partly drawn) [MBX-3323]         pIC50          5.28

Dear colleague, could you send me pIC50 for each of the items below? Thanks.
1. CC[C@@H](Oc1ncc(Cl)cc1Cl)C(=O)NCc1ccc2cc(C(=O)N3CCOCC3)[nH]c2c1 [MBX-3458]
2. CCC(Oc1ncc(Cl)cc1Cl)C(=O)NCc1ccc2sccc2c1 (stereo not drawn) [MBX-2359, reference compound]

1: 5.43; 2: 5.89

Items follow; give pIC50 for each.
1. CC(Oc1ccc(Cl)cc1Cl)C(=O)NCc1cc2ccccc2[nH]1 (stereo not drawn) [MBX-2624]
2. CC(Oc1ccc(Cl)cc1Cl)C(=O)NCc1ccc2c(c1)OCO2 (stereo not drawn) [MBX-1641, reference compound]

[5.06, 5.33]

###

tested on: P. aeruginosa T3SS-mediated secretion (exoT-luxCDABE reporter strain MDM852); experiment: Luciferase (exoT-lux) transcriptional reporter assay of T3SS-mediated secretion; type: cell-based, Pseudomonas aeruginosa; settings: read-out: LUX IC50; Table 6
readout kind: IC50 (nM)
Numbers only, in nM.

Give IC50 for each of the items listed below.
1. CCC(Oc1ncc(Cl)cc1Cl)C(=O)NCc1ccc2sccc2c1 (centres unmarked) [MBX-2359, reference compound]
2. CC(Oc1ccc(Cl)cc1Cl)C(=O)NCc1ccc2c(c1)OCO2 (centres unmarked) [MBX-1641, reference compound]

[1300, 4700]

###

assay: Kinetic aqueous solubility (nephelometric assay); assay type: physicochemical; conditions: Table 1
Task for the reader: assign each of the following molecules its reported Sol.

# count of solved cases: 3
In [3]: df
Out[3]:
                                   molecule  assay_result
0  CCC(Oc1ncc(Cl)cc1Cl)C(=O)NCc1ccc(F)cc1 (stereo not drawn)        200 µM
1  CC(Oc1ccc(Cl)cc1Cl)C(=O)NCc1cc2ccccc2[nH]1 (stereo not drawn)        100 µM
2  CCC(Oc1ncc(Cl)cc1Cl)C(=O)NCc1ccc2c(c1)OCO2 (stereo not drawn)         25 µM

Give one value of Sol per listed molecule.
1. CCC(Oc1ccc(Cl)c(Cl)c1Cl)C(=O)NCc1ccc(F)cc1 (stereo not drawn)
2. CC[C@@H](Oc1ncc(Cl)cc1Cl)C(=O)NCc1ccc2cc(C(=O)N3CCOCC3)[nH]c2c1
3. CC[C@@H](Oc1ncc(Cl)cc1Cl)C(=O)NCc1ccc2cc(CN(C)C)[nH]c2c1

1: 25 µM; 2: 25 µM; 3: 3000 µM

###

Would you kindly list CC50 at 3 days for each of these compounds?
experiment: Mammalian cytotoxicity (CC50), MTS conversion; assay type: cell-based, human; details: human, Table 9; cytotoxicity vs. HeLa cells; read-out: Cytotox CC50

>>> df
                                   compound  assay_result
0  CC[C@@H](Oc1ccc(Cl)c(Cl)c1Cl)C(=O)NCCc1cccc(NC(=O)NC2CC3(C2)CN(CC(=O)O)C3)c1 [MBX-7478A]      ≥ 200 µM
1  CC[C@@H](Oc1ncc(Cl)cc1Cl)C(=O)NCc1cccc(NC(=O)NCC2CN(CC(=O)O)C2)c1 [MBX-7438A]      ≥ 200 µM
2  CC[C@@H](Oc1ncc(Cl)cc1Cl)C(=O)NCc1cccc(NC(=O)NC2COCC(NCCC(=O)O)C2)c1 (some centres unmarked) [MBX-7531A]      ≥ 200 µM
3  CC[C@@H](Oc1ncc(Cl)cc1Cl)C(=O)NCc1cccc(C(=O)NC2CN(CCCC(=O)[O-])C2)c1.[Li+] [MBX-5430A]      ≥ 200 µM

List the reported CC50 at 3 days of each compound below.
1. CC[C@@H](Oc1ncc(Cl)cc1Cl)C(=O)NCc1cccc(C(=O)NC2CN(CC(=O)[O-])C2)c1.[Li+] [MBX-5454A]
2. CC[C@@H](Oc1ncc(Cl)cc1Cl)C(=O)NCc1cccc(C(=O)NC2CN(CCC(=O)[O-])C2)c1.[Li+] [MBX-5427A]
3. CC[C@@H](Oc1ccc(Cl)c(Cl)c1Cl)C(=O)NCCc1cccc(NC(=O)NC2CC3(C2)CN(CCC(=O)O)C3)c1 [MBX-7477A]
4. CC[C@@H](Oc1ncc(Cl)cc1Cl)C(=O)NCc1cccc(NC(=O)NC2CN(CCC(=O)[O-])C2)c1.[Li+] [MBX-5442A]
5. CC[C@@H](Oc1ccc(Cl)c(Cl)c1Cl)C(=O)NCc1cccc(NC(=O)NC2CC3(C2)CN(CC(=O)O)C3)c1 [MBX-7476A]
6. CC[C@@H](Oc1ncc(Cl)cc1Cl)C(=O)NCc1cccc(CNC2CC(C(=O)[O-])C2)c1.[Li+] (some centres unmarked) [MBX-5456A]

["≥ 100 µM", "≥ 200 µM", "≥ 200 µM", "≥ 200 µM", "≥ 200 µM", "107 µM"]

Could you share which CC50 at 3 days value was measured for CC[C@@H](Oc1ncc(Cl)cc1Cl)C(=O)NCc1cccc(NC(=O)NCCNCC(=O)O)c1 [MBX-7497A] ?
≥ 200 µM
